STUDY_TARGET: FLIPK-2 m (Salmonella enterica, UniProt P02911, D183I)
Construct: LAO without first 22 residues (signal peptide), CFP at N-terminus and YFP at C-terminus, N-terminal (His)6 tag, pRSET-B
ASSAY_OVERVIEW: In vitro FRET titration of purified CFP-LAO-YFP sensor with lysine in 20 mM PBS buffer pH 7.5, YFP/CFP (535/485 nm) emission ratio in a microplate reader, fitted to a simple binding isotherm.
EXPERIMENTAL_CONDITIONS: n = 3
Protocol: Specificity of the sensor protein was measured by using five amino acids, arginine, leucine, lysine, ornithine and histidine at three different concentrations i.e. 0, 1.0 and 10 mM, each. FRET measurement was carried out by using a microplate reader. The excitation filter/slit used was 430 nm/20 nm and emission filters/slits for CFP and YFP were 485 nm/20 nm and 535 nm/25 nm, respectively. […] Affinity of sensor protein was monitored by using different concentrations of lysine. […]
MEASURED_METRIC: Kd (mM)
Respond with the bare value in mM.

Per the record, NCCCC[C@H](N)C(=O)O [lysine, L-lysine] has Kd of 2
